Test system: H9c2 cardiomyocytes, 2-deoxyglucose stress, ATP luminescence, 2 h
PROCEDURE_DETAILS: H9c2 cell survival under 2-deoxyglucose stress – uHTS hits, dose response (AID 588780)
The source made the active and inactive calls.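 Rule for the calls: active = compounds whose fitted half-maximal concentration in the cell-protection dose series is at or below a set limit; inactive = the rest.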
Would you mind answering with one of these outcomes? active, inactive

>>> class_label("CCOC(=O)c1c2ccc(OCC(=O)N/N=C/c3ccc(C)cc3)cc2n2ccccc12")
"inactive"

Request: Assay outcome for CCOC(=O)CSc1nnc(CSc2nc3ccccc3c(=O)[nH]2)n1-c1ccccc1 : what was it?
Response: inactive

Request: Assay outcome for COc1cccc(Nc2nc(-c3sc(NC(=O)c4ccco4)nc3C)cs2)c1 : what was it?
Response: inactive

Request: Assay outcome for O=C(CCc1nc2ccccc2c(=O)[nH]1)N1CCN(c2ccccc2Cl)CC1 : what was it?
Response: inactive

Request: Assay outcome for O=C1c2cccnc2Oc2ccc(Cl)cc2N1Cc1ccc(F)cc1 : what was it?
Response: inactive

Request: Assay outcome for CC12CCC3C(CCC4CC(O)CCC43C)C1CC(O)C2 (stereo unspecified) : what was it?
Response: inactive

Request: Assay outcome for CC(=O)Nc1cc(-c2ccc(C(=O)NC3CC3)cc2)cn2c(-c3cccc(C(C)=O)c3)cnc12 : what was it?
Response: inactive

Request: Assay outcome for O=C(Nc1cc(=O)c2ccccc2o1)N1CCCCC1 : what was it?
Response: inactive

Request: Assay outcome for COc1ccc(NC(=O)c2cc(-c3ccc(OC)c(OC)c3)nc3ccccc23)c(OC)c1 : what was it?
Response: inactive

Request: Assay outcome for O=C(c1cc2nc(-c3ccccc3)cc(-c3ccccc3)n2n1)N1CCN(C(=O)c2ccco2)CC1 : what was it?
Response: active

Request: Assay outcome for COc1cc(NC(=O)c2cc([N+](=O)[O-])ccc2NC(=O)CN2CCN(c3ccccn3)CC2)cc(OC)c1 : what was it?
Response: inactive

Request: Assay outcome for COc1ccc(Nc2nc(Nc3ccc(OC)cc3OC)nc(N3CCN(C)CC3)n2)c(OC)c1 : what was it?
Response: inactive

---

Test system: H9c2 cardiomyocytes, 2-deoxyglucose stress, ATP luminescence, 2 h
PROCEDURE_DETAILS: H9c2 cell survival under 2-deoxyglucose stress – uHTS hits, dose response (AID 588780)
The source made the active and inactive calls.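 Rule for the calls: active = compounds whose fitted half-maximal concentration in the cell-protection dose series is at or below a set limit; inactive = the rest.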
Would you mind answering with one of these outcomes? 1 (active), -1 (inactive)

Field: example entries. Status: answers known.
>>> class_label("CCC(=O)Oc1ccc2c(C)cc(=O)oc2c1C")
-1
>>> class_label("CC(=O)c1ccc(-c2cnc3c(NC=O)cc(-c4ccc(C(=O)NC5CC5)cc4)cn23)cc1")
-1
>>> class_label("COc1ccc(-c2nnc3sc(-c4ccco4)nn23)cc1OC")
-1
>>> class_label("O=C(NN=Cc1ccc(N2CCOCC2)s1)c1ccc([N+](=O)[O-])cc1")
-1

Request: Assay outcome for COc1ccc2oc(C(=O)Nc3ccc(N4CCOCC4)cc3)c(C)c2c1 : what was it?
Response: -1

Request: Assay outcome for Cc1ccc(C(=O)CSc2nc3ccccc3c(=O)[nH]2)cc1 : what was it?
Response: -1

Request: Assay outcome for Cc1ccc(-c2nn3c(C)nnc3s2)cc1NC(=O)COc1ccc(Cl)cc1 : what was it?
Response: -1

Request: Assay outcome for COc1ccccc1NC(=O)COc1ccc(/C=N/NC(=O)c2cccnc2)cc1 : what was it?
Response: 1

Request: Assay outcome for CC(=O)Nc1cccc(NC(=O)c2cc(-c3cccnc3)nc3ccc(Cl)cc23)c1 : what was it?
Response: -1

---

Test system: H9c2 cardiomyocytes, 2-deoxyglucose stress, ATP luminescence, 2 h
PROCEDURE_DETAILS: H9c2 cell survival under 2-deoxyglucose stress – uHTS hits, dose response (AID 588780)
Activity calls are given as the source filed them.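 Rule for the calls: active = compounds whose fitted half-maximal concentration in the cell-protection dose series is at or below a set limit; inactive = the rest.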
Would you mind answering with one of these outcomes? 1 (yes) for active, 0 (no) for inactive

>>> class_label("COc1cc(NC(=O)c2csc(-c3ccncc3)n2)cc(C(=O)Nc2cccc(C(F)(F)F)c2)c1")
"1 (yes)"
>>> class_label("COC(=O)c1cc(OC)c(OC)cc1NC(=O)c1ccc(C)o1")
"1 (yes)"
>>> class_label("CCCN1C(=O)/C(=C/c2nc3ccccc3c(=O)[nH]2)c2ccccc21")
"1 (yes)"
>>> class_label("CCOC(=O)c1cccc(Nc2nc(-c3cccnc3)nc3ccccc23)c1")
"1 (yes)"
>>> class_label("O=C(CNC(=O)c1nc[nH]c1C(=O)NCC(=O)OCc1ccccc1)OCc1ccccc1")
"0 (no)"

Request: Assay outcome for COc1ccc(C(C(=O)NCc2ccccc2)N(Cc2ccco2)C(=O)c2snc(C(N)=O)c2N)cc1 (stereo unspecified) : what was it?
Response: 0 (no)

Request: Assay outcome for C/C(=N\NC(=O)CCCNc1ccc(C)cc1)c1ccccn1 : what was it?
Response: 0 (no)

Request: Assay outcome for COC(=O)c1cccc(Nc2nc(-c3cccnc3)nc3ccccc23)c1 : what was it?
Response: 0 (no)

Request: Assay outcome for Cc1nn(Cc2ccc(C(=O)N3CCN(C(=O)c4ccco4)CC3)o2)c(C)c1[N+](=O)[O-] : what was it?
Response: 0 (no)

Request: Assay outcome for CC(=O)c1cccc(NC(=O)C(C)OC(=O)CCc2nc3ccccc3c(=O)[nH]2)c1 (stereo unspecified) : what was it?
Response: 0 (no)

Request: Assay outcome for O=C1N[C@H](Cc2ccccc2)COC(=O)[C@@H](Cc2ccc(F)cc2)C/C=C\C[C@H]1CC(=O)N(CCO)Cc1ccccc1 : what was it?
Response: 1 (yes)

Request: Assay outcome for O=C1OCCN1C(=O)[C@H]1[C@H](c2ccc([N+](=O)[O-])cc2)C(c2ccccc2)=NN1c1ccc(Br)cc1 : what was it?
Response: 0 (no)

Request: Assay outcome for Cn1c(=O)[nH]c(=O)c2c1nc(Br)n2CC(O)COc1ccc(Cl)cc1 (stereo unspecified) : what was it?
Response: 1 (yes)

---

Test system: H9c2 cardiomyocytes, 2-deoxyglucose stress, ATP luminescence, 2 h
PROCEDURE_DETAILS: H9c2 cell survival under 2-deoxyglucose stress – uHTS hits, dose response (AID 588780)
Activity calls are given as the source filed them.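 How the source made its calls: active means compounds whose fitted half-maximal concentration in the cell-protection dose series is at or below a set limit; inactive means the rest.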
Would you mind answering with one of these outcomes? T = active, F = inactive

Request: Assay outcome for O=C(COC(=O)CCc1nc2ccccc2c(=O)[nH]1)Nc1c(Cl)cccc1C(F)(F)F : what was it?
Response: F

Request: Assay outcome for Cc1nn2c(-c3cccc(NC(=O)c4ccco4)c3)nnc2c2ccccc12 : what was it?
Response: F

Request: Assay outcome for COc1ccc(N(C(=O)c2cccnc2)S(=O)(=O)c2cccs2)cc1 : what was it?
Response: F

Request: Assay outcome for C1=C(c2ccccc2)CCN(c2nc3ccccc3n3cnnc23)C1 : what was it?
Response: T

Request: Assay outcome for CC1CCCC(C)N1C(=O)COC(=O)c1n[nH]c(=O)c2ccccc12 (stereo not given) : what was it?
Response: F

Request: Assay outcome for CC(=O)Nc1ccc(C(=O)N/N=C/c2ccccc2OC(=O)c2ccc(Cl)cc2)cc1 : what was it?
Response: T

Request: Assay outcome for COc1cccc(C(=O)Nc2nnc(-c3ccc(Cl)cc3)o2)c1 : what was it?
Response: T

Request: Assay outcome for Cc1c(-c2ccccc2)oc2c(C(=O)OCC(=O)Nc3ccc(C(N)=O)cc3)cccc2c1=O : what was it?
Response: T

Request: Assay outcome for COc1ccc(-c2cc(NC(C)=O)c3ncc(-c4cccc(C(C)=O)c4)n3c2)cc1OC : what was it?
Response: T

Request: Assay outcome for COc1ccc2[nH]c(=O)c(CNC3CCCCC3)cc2c1 : what was it?
Response: F

---

System: H9c2 cardiomyocytes, 2-deoxyglucose stress, ATP luminescence, 2 h
PROCEDURE_DETAILS: H9c2 cell survival under 2-deoxyglucose stress – uHTS hits, dose response (AID 588780)
Active and inactive are the calls of the source.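 The calls were made as follows: active = compounds whose fitted half-maximal concentration in the cell-protection dose series is at or below a set limit; inactive = the rest.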
Would you mind answering with one of these outcomes? active, inactive

Field: example entries. Status: answers known.
>>> class_label("C=CCOc1ccc(C=Nc2ccc(OC)cc2)c(O)c1")
"active"
>>> class_label("COc1ccc(-c2nn3c(-c4ccco4)nnc3s2)cc1OC")
"inactive"
>>> class_label("COc1cccc(CN2CCN(C(=O)c3cc(-c4cccnc4)nc4ccc(C)cc34)CC2)c1")
"active"
>>> class_label("CCOC(=O)c1cnc(SC)nc1Oc1cccc(NC(=O)c2cccc(Cl)c2Cl)c1")
"active"
>>> class_label("CCc1nc2ccc(C(=O)Nc3cc(-c4ccccc4)ccc3OC)cn2c1N(C)Cc1nccs1")
"active"
>>> class_label("O=c1c(O)c(-c2cccs2)oc2ccc(Cl)cc12")
"active"
>>> class_label("COc1ccc(NC(=O)c2cc3c(=O)n(C)c4ccccc4c3n2C)cc1OC")
"inactive"
>>> class_label("O=C(COC(=O)Cn1[nH]c(=O)c2ccccc2c1=O)Nc1c(Cl)cccc1C(F)(F)F")
"inactive"

Request: Assay outcome for CC(C)(C)OC(=O)C[C@H]1C/C=C\C[C@H](CC(=O)N[C@H](CO)Cc2ccccc2)C(=O)N[C@H](Cc2ccccc2)COC1=O : what was it?
Response: active

Request: Assay outcome for COc1ccc(-n2c(C)c(C(C)=O)c3cc(OC(C)=O)ccc32)cc1 : what was it?
Response: active

Data provenance: PubChem BioAssay AID588780
